From: PubChem BioAssay (EPA / NIEHS)

Target system: Estrogen receptor (Homo sapiens) + Estrogen receptor beta (Homo sapiens) (UniProt P03372+Q92731)
Sequence (P03372 whole entry, looked up, the tested form may be a part): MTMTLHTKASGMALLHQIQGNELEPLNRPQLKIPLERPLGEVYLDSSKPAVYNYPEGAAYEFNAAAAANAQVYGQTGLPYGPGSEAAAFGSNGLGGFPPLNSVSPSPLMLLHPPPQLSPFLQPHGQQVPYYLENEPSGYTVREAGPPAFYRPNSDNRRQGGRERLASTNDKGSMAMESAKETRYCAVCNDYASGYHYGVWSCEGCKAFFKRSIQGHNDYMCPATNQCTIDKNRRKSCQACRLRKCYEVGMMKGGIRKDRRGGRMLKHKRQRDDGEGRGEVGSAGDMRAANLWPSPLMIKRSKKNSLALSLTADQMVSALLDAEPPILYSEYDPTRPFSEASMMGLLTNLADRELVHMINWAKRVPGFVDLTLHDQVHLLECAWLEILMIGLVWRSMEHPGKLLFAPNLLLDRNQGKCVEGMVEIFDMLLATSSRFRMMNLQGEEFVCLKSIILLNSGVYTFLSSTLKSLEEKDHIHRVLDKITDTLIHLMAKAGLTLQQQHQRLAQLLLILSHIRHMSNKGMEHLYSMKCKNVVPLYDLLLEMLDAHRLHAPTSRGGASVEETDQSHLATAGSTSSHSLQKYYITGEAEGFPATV
Sequence (Q92731 whole entry, looked up, the tested form may be a part): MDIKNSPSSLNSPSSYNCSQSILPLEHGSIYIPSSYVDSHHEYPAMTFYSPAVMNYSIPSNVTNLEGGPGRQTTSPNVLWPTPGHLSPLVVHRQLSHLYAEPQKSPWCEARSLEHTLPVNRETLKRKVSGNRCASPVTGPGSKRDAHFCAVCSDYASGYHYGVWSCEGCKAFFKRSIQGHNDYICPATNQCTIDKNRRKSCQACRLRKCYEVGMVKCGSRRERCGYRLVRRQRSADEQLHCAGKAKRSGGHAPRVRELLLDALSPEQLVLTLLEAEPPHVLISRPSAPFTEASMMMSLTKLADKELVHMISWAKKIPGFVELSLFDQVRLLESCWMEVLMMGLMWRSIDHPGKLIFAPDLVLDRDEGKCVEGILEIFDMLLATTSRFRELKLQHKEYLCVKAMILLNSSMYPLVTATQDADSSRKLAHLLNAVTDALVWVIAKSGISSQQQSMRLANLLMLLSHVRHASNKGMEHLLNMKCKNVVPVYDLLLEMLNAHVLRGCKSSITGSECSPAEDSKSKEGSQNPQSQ
Assay summary: OT_ER_ERaERb_1440: Odyssey Thera (OT) 24-hour HEK293T Protein-Complementation Assay for Estrogen Receptor-alpha/-beta Homodimer (AID 2283356);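 further: heteromer of ER alpha and ER beta binding domains; hits raise reporter fluorescence and both agonists and antagonists give an increase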
Protocol: OT_ER_ERaERb_1440 is a cell-based assay that uses HEK293T, a human kidney cell line, with measurements taken at 24 hours after chemical dosing in a 384-well plate.OT_ER_ERaERb_1440 is one of one assay component(s) measured or calculated from the OT_ER_ERaERb_1440 assay. […] This assay endpoint, OT_ER_ERaERb_1440, was analyzed in the positive analysis fitting direction relative to DMSO as the negative control and baseline of activity. […]
Results filed as inconclusive are left out. The source made the active and inactive calls. How the source made its calls: active means hit-call score of the fitted dose curve at least 0.9, where 1 is the maximum; inconclusive means response in the unintended direction; inactive means score below 0.9.
Log the outcome using a class from active, inactive

>  <Compound>
CCCc1ccc(N)cc1

>  <Assigned class>
inactive

$$$$
>  <Compound>
CC1COC(=O)O1 (stereo unspecified)

>  <Assigned class>
inactive

$$$$

[in] // param item: "CCCCCCCCCCOC(=O)c1ccccc1C(=O)OCCCCCCCC" ; yields the recorded call
[out] inactive

[in] // param item: CC(O)CN (stereo unspecified) ; yields the recorded call
[out] inactive

[in] // param item: "CC(C)CCCC(C)(C)O" ; yields the recorded call
[out] inactive

[in] // param item: "CCO[Si](CC)(OCC)OCC" ; yields the recorded call
[out] inactive

[in] // param item: "NCCN1CCNCC1" ; yields the recorded call
[out] inactive

[in] // param item: "CC(=O)Nc1cc(S(=O)(=O)O)cc2cc(S(=O)(=O)O)c(N=Nc3ccccc3)c(O)c12" ; yields the recorded call
[out] inactive

[in] // param item: CCOCC(C)O (stereo unspecified) ; yields the recorded call
[out] inactive

[in] // param item: "c1ccc(OCCOc2ccccc2)cc1" ; yields the recorded call
[out] inactive

[in] // param item: "CCCCOCCOCCO" ; yields the recorded call
[out] inactive

[in] // param item: "CC(=O)C1=C(C)[C@@H]2C[C@@]3(C1)[C@H](C)CC[C@H]3C2(C)C" ; yields the recorded call
[out] active
